Experiment: pPAFAH inhibition and serine hydrolase selectivity, late-stage follow-up, selectivity assay for pPAFAH inhibitor project, biochemical, gel-based, FP-Rh fluorescence, mouse, HTS hit compounds (AID 588773)
Settings: gel-based competitive ABPP, proteome, MW 30 kDa protein, at 1 µM, stronger effect = higher value
Measured inhibition of individual entries
endpoint.name: inhibition (%)

                                smiles_text  unit_label  readout_value
0         O=C(Oc1ccc(-c2ccccc2)cc1)N1CCOCC1           %             27
1         O=C(Oc1ccc(-c2ccccc2)cc1)N1CCCCC1           %             60
2             O=C(Oc1nsnc1N1CCOCC1)N1CCOCC1           %             23
3  O=C(Oc1ccc([N+](=O)[O-])cc1)N1CCC(N2CCCCC2)CC1           %             22
4              CN(C)C(=O)Oc1noc2cc(Cl)ccc12           %              6
